biological target: HLA-B*51:01; assay: IEDB peptide-MHC binding, purified MHC/direct/fluorescence; filed as Kd, often an IC50 or EC50 that approximates it; bounds were set here for any values at or beyond the usual limits of such assays; details: source organism: Mycobacterium tuberculosis
property measured: Kd

sequence_data=RVEESRARL result_value="≥ 20 µM"

====

molecular target: HLA-A*01:01; test: IEDB peptide-MHC binding, purified MHC/direct/fluorescence; filed as Kd, often an IC50 or EC50 that approximates it; bounds were set here for any values at or beyond the usual limits of such assays; conditions: source organism: Yersinia pestis
pKd: −log10 of the molar value.
property measured: pKd

sequence_data=AMQDPNPEV prefix_operator=≤ result_value=4.70
sequence_data=MQLQLNCAY prefix_operator== result_value=5.56

====

target: HLA-B*51:01; assay: IEDB peptide-MHC binding, purified MHC/direct/fluorescence; filed as Kd, often an IC50 or EC50 that approximates it; bounds were set here for any values at or beyond the usual limits of such assays; conditions: source organism: Mycobacterium tuberculosis str. Haarlem
pKd: −log10 of the molar value.
property measured: pKd

sequence_data=RVACRDVEV result_value="≤ 4.70"

====

biological target: HLA-A*32:15; experiment: IEDB peptide-MHC binding, purified MHC/competitive/fluorescence; filed as Kd, often an IC50 or EC50 that approximates it; bounds were set here for any values at or beyond the usual limits of such assays; settings: source organism: Human alphaherpesvirus 1
pKd: −log10 of the molar value.
property measured: pKd

sequence_data=MPYAAHDPI target=HLA-A*32:15 property_measured=pKd result_value=6.87

====

Entries and their Kd values follow.
molecular target: HLA-A*02:01; test: IEDB peptide-MHC binding, purified MHC/direct/fluorescence; filed as Kd, often an IC50 or EC50 that approximates it; bounds were set here for any values at or beyond the usual limits of such assays; details: source organism: Giardia lamblia ATCC 50803
property measured: Kd

sequence_data=WLKEKHEEL result_value="0.304 µM"
sequence_data=SHSIPNGLL result_value="≥ 20 µM"
sequence_data=ETESVNSNY result_value="≥ 20 µM"

====

Entries and their pKd values follow.
target: HLA-A*23:01; assay: IEDB peptide-MHC binding, purified MHC/competitive/radioactivity; filed as Kd, often an IC50 or EC50 that approximates it; bounds were set here for any values at or beyond the usual limits of such assays; settings: source organism: Mammarenavirus machupoense
pKd: −log10 of the molar value.
property measured: pKd

sequence_data=CGDPSSLDY prefix_operator=≤ result_value=4.11
sequence_data=CWFADTNLI prefix_operator== result_value=7.05
sequence_data=PYENLLYKL prefix_operator== result_value=7.09

====

target: HLA-B*07:02; assay: IEDB peptide-MHC binding, purified MHC/competitive/fluorescence; bounds were set here for any values at or beyond the usual limits of such assays; settings: source organism: Zaire ebolavirus
Entries and their IC50 values follow.
property measured: IC50

sequence_data=IVKTVLDHI result_value="≥ 170 µM"
sequence_data=RFKRTSFFL result_value="≥ 215 µM"
sequence_data=QSVGHMMVI result_value="34.5 µM"
sequence_data=KVSGTGPCA result_value="≥ 96.8 µM"
sequence_data=IKRTLAAMP result_value="≥ 151 µM"
sequence_data=LFPQLSAIA result_value="≥ 142 µM"

====

molecular target: HLA-B*83:01; assay: IEDB peptide-MHC binding, purified MHC/competitive/fluorescence; filed as Kd, often an IC50 or EC50 that approximates it; bounds were set here for any values at or beyond the usual limits of such assays; conditions: source organism: Yellow fever virus 1899/81
pKd: −log10 of the molar value.
property measured: pKd

sequence_data=REMHHLVEF target=HLA-B*83:01 property_measured=pKd result_value="≤ 5.30"

====

molecular target: HLA-A*02:03; assay: IEDB peptide-MHC binding, purified MHC/competitive/radioactivity; filed as Kd, often an IC50 or EC50 that approximates it; bounds were set here for any values at or beyond the usual limits of such assays; settings: source organism: Dengue virus 1 Singapore/S275/1990
pKd: −log10 of the molar value.
property measured: pKd

sequence_data=GLLCVMASSV target=HLA-A*02:03 property_measured=pKd result_value=7.59

====

target: HLA-B*45:01; test: IEDB peptide-MHC binding, purified MHC/competitive/radioactivity; filed as Kd, often an IC50 or EC50 that approximates it; bounds were set here for any values at or beyond the usual limits of such assays; details: source organism: SARS coronavirus Tor2
pKd: −log10 of the molar value.
property measured: pKd

sequence_data=EEAALCTFLL prefix_operator== result_value=7.05
sequence_data=VEFLKDAWEI prefix_operator== result_value=5.40
sequence_data=REVKTIKVF prefix_operator== result_value=5.17
sequence_data=AEVQIDRLI prefix_operator== result_value=6.01
sequence_data=YDYYRYNLPT prefix_operator== result_value=4.82
sequence_data=NEYRQYLDAY prefix_operator== result_value=5.31
sequence_data=YEGNSPFHPL prefix_operator=≤ result_value=4.37
sequence_data=SDYDYYRYNL prefix_operator=≤ result_value=4.60
sequence_data=LEDFKPRSQM prefix_operator== result_value=4.75
sequence_data=RERVNINIVG prefix_operator== result_value=5.79
sequence_data=SEYDYVIFT prefix_operator== result_value=7.94
sequence_data=IDYDCVSFCY prefix_operator== result_value=5.24

====

molecular target: HLA-B*27:05; experiment: IEDB peptide-MHC binding, purified MHC/direct/fluorescence; filed as Kd, often an IC50 or EC50 that approximates it; bounds were set here for any values at or beyond the usual limits of such assays; conditions: source organism: Toxoplasma gondii
pKd: −log10 of the molar value.
property measured: pKd

sequence_data=WRMVVRASF property_measured=pKd result_value=8.10

====

Entries and their Kd values follow.
molecular target: HLA-B*51:01; assay: IEDB peptide-MHC binding, purified MHC/competitive/fluorescence; filed as Kd, often an IC50 or EC50 that approximates it; bounds were set here for any values at or beyond the usual limits of such assays; settings: source organism: Homo sapiens
property measured: Kd

sequence_data=YSDNEMLTH result_value="≥ 20 µM"
sequence_data=SLFNWLWYE result_value="≥ 20 µM"

====

target: HLA-A*24:02; assay: IEDB peptide-MHC binding, purified MHC/competitive/radioactivity; filed as Kd, often an IC50 or EC50 that approximates it; bounds were set here for any values at or beyond the usual limits of such assays; details: source organism: Dengue virus 2 Jamaica/1409/1983
property measured: log10(Kd) (log10 of the value in nM)

sequence_data=GYHTQTAGPW result_value=3.51
sequence_data=AYTIGTTHF result_value=2.89
sequence_data=NWLNNNTQF result_value=1.94
sequence_data=SYLAGAGLLF result_value=0.79
sequence_data=LAYTIGTTHF result_value=2.36

====

target: HLA-A*02:12; experiment: IEDB peptide-MHC binding, purified MHC/direct/fluorescence; filed as Kd, often an IC50 or EC50 that approximates it; bounds were set here for any values at or beyond the usual limits of such assays; details: source organism: Araucaria virus
pKd: −log10 of the molar value.
property measured: pKd

sequence_data=GVPELGAFF target=HLA-A*02:12 result_value="≤ 4.70"

====

target: HLA-B*40:02; experiment: IEDB peptide-MHC binding, purified MHC/competitive/radioactivity; filed as Kd, often an IC50 or EC50 that approximates it; bounds were set here for any values at or beyond the usual limits of such assays; conditions: source organism: Mammarenavirus guanaritoense
pKd: −log10 of the molar value.
property measured: pKd

sequence_data=PDFELLLSL property_measured=pKd result_value=8.66

====

biological target: HLA-B*15:01; assay: IEDB peptide-MHC binding, purified MHC/direct/fluorescence; filed as Kd, often an IC50 or EC50 that approximates it; bounds were set here for any values at or beyond the usual limits of such assays; settings: source organism: Brucella abortus 2308
pKd: −log10 of the molar value.
property measured: pKd

sequence_data=KRASGDPYF target=HLA-B*15:01 result_value="≤ 4.70"
sequence_data=IEVKFHPIL target=HLA-B*15:01 result_value="≤ 4.70"

====

molecular target: HLA-A*02:16; experiment: IEDB peptide-MHC binding, purified MHC/competitive/fluorescence; filed as Kd, often an IC50 or EC50 that approximates it; bounds were set here for any values at or beyond the usual limits of such assays; conditions: source organism: Bacillus anthracis str. A0488
property measured: Kd

sequence_data=IQKGMFVVK property_measured=Kd result_value="≥ 20 µM"

====

molecular target: HLA-B*08:02; assay: IEDB peptide-MHC binding, purified MHC/direct/fluorescence; filed as Kd, often an IC50 or EC50 that approximates it; bounds were set here for any values at or beyond the usual limits of such assays; conditions: source organism: Coxiella burnetii RSA 493
pKd: −log10 of the molar value.
property measured: pKd

sequence_data=IIGLLKIFR result_value="≤ 4.70"
